Values compiled from PubChem BioAssay (NCI).

Test system: SK-MEL-5 melanoma
Test: NCI-60 one-dose screen, 48 h
Conditions: 10 µM unless noted
This is part of a sample that, as a whole, favours compounds with a hit. Of some 83,000 tested, about 20% had one in any assay. The source made the active and inactive calls. How the source made its calls: active means growth percent below 10; inactive means the rest.
Outcome codes: active, inactive

compound: COc1cccc2c(N=NC(=O)c3ccc(S(N)(=O)=O)cc3)c(O)[nH]c12
discrete label: inactive
--
compound: N#C/C(=C\c1ccc(Br)cc1)c1cc2ccccc2[nH]1
discrete label: inactive
--
compound: COc1cc2ncnc(Nc3ccc(F)c(Cl)c3)c2cc1OCC(=O)N1CCN(c2ccc(F)cc2)CC1
discrete label: inactive
--
compound: COc1cc(/C=N/Nc2ccccc2F)cc(OC)c1OC
discrete label: inactive
--
compound: CCOC(=O)C1=C(C)N=C2SC=C(c3ccccc3)N2[C@H]1c1cn[nH]c1-c1ccc(Cl)cc1
discrete label: inactive
--
compound: O=C(CN1C(=O)NC2NC(=O)NC21)N/N=C/c1ccc(Cl)cc1Cl (stereo not given)
discrete label: inactive
--
compound: CCn1c2ccc(O)cc2c2c(C)c3c[n+](C(C)C)ccc3c(C)c21
discrete label: inactive
--
compound: COc1ccc2c(c1)c(-c1ccc(-c3cn(C)c4ccc(OC)cc34)[nH]1)cn2C
discrete label: inactive
--
compound: COc1cc2cc(NCc3ccc(OC(F)F)cc3)nc(C)c2cc1OC
discrete label: inactive
--
compound: COc1ccc(/C=C/C(=O)c2cc3c(N)c(C(=O)Nc4ccc(OC)cc4)sc3nc2C)cc1
discrete label: active
